test: Evaluation of hydrosolubility: presence or absence of precipitate in buffered solutions; details: 500 μM in PBS buffer, diluted from DMSO stock solution
quantity kind: hydrosolubility (presence or absence of precipitate)

According to the records, this molecule COCCOCCOCCn1cc(CCC(=O)N2CCN(C(=O)Oc3ccc4c(C)cc(=O)oc4c3)C(CNC(=O)Cc3ccccc3)C2)nn1 (stereo not shown) [Compound 31] displays hydrosolubility (presence or absence of precipitate) of soluble

According to the records, this molecule COCCOCCOCCn1cc(CCC(=O)N2CCN(C(=O)Oc3ccc(Cl)cc3-c3nc4ccc(Cl)cc4c(=O)[nH]3)C(CNC(=O)Cc3ccccc3)C2)nn1 (stereo not shown) [Compound 39] displays hydrosolubility (presence or absence of precipitate) of insoluble

According to the records, this molecule Cc1cc(=O)oc2cc(OC(=O)N3CCNCC3CNC(=O)Cc3ccccc3)ccc12 (stereo not shown) [Compound 12] displays hydrosolubility (presence or absence of precipitate) of soluble

According to the records, this molecule CCCCCCCC(=O)OCC1CCCCN1C(=O)Oc1ccc2c(C)cc(=O)oc2c1 (stereo not shown) [Compound 27, reference compound] displays hydrosolubility (presence or absence of precipitate) of insoluble
